Cited source for all entries: patent US20230287217A1

Provide the reported FWHMabs (nm) of each item.
# Assay Explanation: UV-Vis absorption and fluorescence spectroscopy (spectral properties in aqueous media / PBS buffer)
# Type: physicochemical
# Condition Description: aqueous media; absorption band width
A bare number is not enough; add the unit after it.

Worked examples follow.
| Molecule | Value Measured |
| --- | --- |
| CN(C)c1ccc2c(-c3ccccc3C(=O)[O-])c3ccc(=[N+](C)C)cc-3oc2c1 [TMR] | 38 nm |
| CN(C)c1ccc2c(c1)[Si](C)(C)C1=CC(=[N+](C)C)C=CC1=C2c1ccccc1C(=O)O [SiR] | 39 nm |
| Cc1ccccc1-c1c2cc/c(=[N+](/C)CCCS(=O)(=O)[O-])cc-2oc2cc(N(C)C)ccc12 [OF550] | 33 nm |
| CN(C)c1ccc2c(c1)[Si](C)(C)C1=CC(=[N+](C)C)C=CC1=C2c1cc(C(=O)NCCCn2cc(-c3cccc(Nc4ncnc5ccccc45)c3)nn2)ccc1C(=O)[O-] [SiRErl(UnT)] | 38 nm |
| C#Cc1cccc(Nc2ncnc3ccc(NC(=O)CCNC(=O)c4ccc(C5=C6C=C/C(=[N+](/C)CCCS(=O)(=O)[O-])C=C6[Si](C)(C)c6cc(N(C)C)ccc65)c(C)c4)cc23)c1 [OF650Erl(T)] | 38 nm |
| Cc1cc(C(=O)NCc2ccc(COc3nc(N)nc4[nH]cnc34)cc2)ccc1-c1c2cc/c(=[N+](/C)CCCS(=O)(=O)[O-])cc-2oc2cc(N(C)C)ccc12 [OF550SNAP] | 38 nm |
| Cc1cc(C(=O)[O-])ccc1C1=C2C=C/C(=[N+](/C)CCCS(=O)(=O)O)C=C2[Si](C)(C)c2cc(N(C)C)ccc21 [OF650COOH] | 34 nm |
| C#Cc1cccc(Nc2ncnc3ccc(NC(=O)CCNC(=O)c4ccc(C(=O)[O-])c(C5=C6C=CC(=[N+](C)C)C=C6[Si](C)(C)c6cc(N(C)C)ccc65)c4)cc23)c1 [SiRErl(T)] | 42 nm |

Consider the following items and state reported FWHMabs (nm) for each.
1. Cc1cc(C(=O)NCCOCCOCCCCCCCl)ccc1-c1c2cc/c(=[N+](/C)CCCS(=O)(=O)[O-])cc-2oc2cc(N(C)C)ccc12 [OF550HALO]
2. C#Cc1cccc(Nc2ncnc3ccc(NC(=O)CCNC(=O)c4ccc(C(=O)[O-])c(-c5c6ccc(=[N+](C)C)cc-6oc6cc(N(C)C)ccc56)c4)cc23)c1 [TMRErl(T)]
3. C#Cc1cccc(Nc2ncnc3ccc(NC(=O)CCNC(=O)c4ccc(-c5c6cc/c(=[N+](/C)CCCS(=O)(=O)[O-])cc-6oc6cc(N(C)C)ccc56)c(C)c4)cc23)c1 [OF550Erl(T)]
4. Cc1cc(C(=O)NCCCn2cc(-c3cccc(Nc4ncnc5ccccc45)c3)nn2)ccc1-c1c2cc/c(=[N+](/C)CCCS(=O)(=O)[O-])cc-2oc2cc(N(C)C)ccc12 [OF550Erl(UnT)]
5. CN(C)c1ccc2c(c1)[Si](C)(C)C1=CC(=[N+](C)C)C=CC1=C2c1cc(C(=O)O)ccc1C(=O)[O-] [SiRCOOH]

1. 34 nm
2. 39 nm
3. 80 nm
4. 35 nm
5. 39 nm

====

# Assay Explanation: UV-Vis absorption and fluorescence spectroscopy (spectral properties in aqueous media / PBS buffer)
# Type: physicochemical
# Condition Description: aqueous media; extinction coefficient from Beer's Law plots
Observed Property: ε (M^-1 cm-1)

Worked examples follow.
| Smiles Data | Value Measured |
| --- | --- |
| Cc1cc(C(=O)NCCOCCOCCCCCCCl)ccc1-c1c2cc/c(=[N+](/C)CCCS(=O)(=O)[O-])cc-2oc2cc(N(C)C)ccc12 | 97,200 M^-1 cm-1 |
| Cc1ccccc1C1=C2C=C/C(=[N+](/C)CCCS(=O)(=O)[O-])C=C2[Si](C)(C)c2cc(N(C)C)ccc21 | 125,500 M^-1 cm-1 |
| CN(C)c1ccc2c(c1)[Si](C)(C)C1=CC(=[N+](C)C)C=CC1=C2c1ccccc1C(=O)O | 19,200 M^-1 cm-1 |
| C#Cc1cccc(Nc2ncnc3ccc(NC(=O)CCNC(=O)c4ccc(C(=O)[O-])c(-c5c6ccc(=[N+](C)C)cc-6oc6cc(N(C)C)ccc56)c4)cc23)c1 | 33,100 M^-1 cm-1 |

Read the next record carefully.
Query (compound): C#Cc1cccc(Nc2ncnc3ccc(NC(=O)CCNC(=O)c4ccc(C5=C6C=C/C(=[N+](/C)CCCS(=O)(=O)[O-])C=C6[Si](C)(C)c6cc(N(C)C)ccc65)c(C)c4)cc23)c1 ; field requested: ε (M^-1 cm-1)
43,400 M^-1 cm-1
